PROCEDURE_SUMMARY: method code SF-AS, from PMID: 4559156
RUN_PARAMETERS: pH 7.4
Task for the reader: assign each of the following molecules its reported logD.
Give bare numbers.

Here's what some known entries look like.
MOLECULE	logD
CCN1CCNC1=Nc1ncc([N+](=O)[O-])s1	2.28
O=[N+]([O-])c1cnc(N=C2NCCN2CCO)s1	1.23
O=[N+]([O-])c1cnc(/N=C2/SCCN2CCO)s1	1.28
CC(=O)OCCN1CCS/C1=N/c1ncc([N+](=O)[O-])s1	1.88
O=[N+]([O-])c1cnc(/N=C2/OCCN2CCO)s1	0.43

# per-item lookup of logD; items listed below
1. O=[N+]([O-])c1cnc(N=C2NCCO2)s1
2. CN1CCN(C)C1=Nc1ncc([N+](=O)[O-])s1
3. O=[N+]([O-])c1cnc(NC2=NCCN2)s1

0.57
0.92
1.38

# per-item lookup of logD; items listed below
1. O=[N+]([O-])c1cnc(N=C2NCC(O)CN2)s1 (stereo not given)
2. CC1CNC(=Nc2ncc([N+](=O)[O-])s2)N1C (stereo not given)
3. CC1N=C(Nc2ncc([N+](=O)[O-])s2)OC1(C)C (stereo not given)
4. CN1CCN=C1Nc1ncc([N+](=O)[O-])s1
5. CN1CC(O)CN(C)C1=Nc1ncc([N+](=O)[O-])s1 (stereo not given)
6. CC1CN(C)C(=Nc2ncc([N+](=O)[O-])s2)N1 (stereo not given)
7. CC1(C)NC(=Nc2ncc([N+](=O)[O-])s2)OC1(C)C

1: 0.74; 2: 2.02; 3: 1.88; 4: 1.8; 5: 0.16; 6: 1.95; 7: 2.4
